Where do the numbers come from? From patent US20260109763A1.

Target: T1, human PILRA G78 extracellular domain (recombinant hPILRA ECD) (human, UniProt Q9UKJ1 20-197)
T1 construct: also called hPILRA G78
T1 sequence (Q9UKJ1 20-197 R78G limits assumed): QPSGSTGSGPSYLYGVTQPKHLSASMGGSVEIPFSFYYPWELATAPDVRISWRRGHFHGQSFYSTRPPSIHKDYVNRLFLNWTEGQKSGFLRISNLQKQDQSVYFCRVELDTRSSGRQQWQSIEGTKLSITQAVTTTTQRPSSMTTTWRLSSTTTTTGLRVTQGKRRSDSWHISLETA
Experiment: SPR, Biacore 8K; hPILRA ECD; antibody with wild-type Fc
pKd: −log10 of the molar value.

{"binder": "Anti-PILRA antibody clone 22 (antibody, V domains shown, Humanized) VH: EVQLVQSGAEVKKPGASVKVSCKASGYTFTEYYMYWVRQAPGQGLELIGRIDPEDGGTDYVEKFKNRVTLTADTSTSTAYLELSSLRSEDTAVYYCASTIRGTVFVYWGQGTLVTVSS VL: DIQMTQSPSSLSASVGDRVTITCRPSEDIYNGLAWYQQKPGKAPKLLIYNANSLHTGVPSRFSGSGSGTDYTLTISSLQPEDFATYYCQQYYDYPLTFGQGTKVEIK", "pKd": 9.29}
{"binder": "Anti-PILRA antibody clone 23 (antibody, V domains shown, Humanized; also called Ab.23) VH: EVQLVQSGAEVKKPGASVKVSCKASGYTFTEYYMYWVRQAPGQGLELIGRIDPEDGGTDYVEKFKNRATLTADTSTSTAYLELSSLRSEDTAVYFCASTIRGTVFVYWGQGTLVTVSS VL: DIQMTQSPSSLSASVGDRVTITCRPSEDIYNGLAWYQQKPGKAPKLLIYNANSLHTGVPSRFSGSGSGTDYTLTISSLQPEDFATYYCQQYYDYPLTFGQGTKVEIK", "pKd": 9.31}
{"binder": "Anti-PILRA antibody clone 34 (antibody, V domains shown, Humanized) VH: EVQLVQSGAEVKKPGASVKVSCKASGYTFTEYYMYWVRQAPGQGLELIGRIDPEDGGTDYVEKFKNRVTLTADTSTSTAYLELSSLRSEDTAVYYCASTIRGTVFVYWGQGTLVTVSS VL: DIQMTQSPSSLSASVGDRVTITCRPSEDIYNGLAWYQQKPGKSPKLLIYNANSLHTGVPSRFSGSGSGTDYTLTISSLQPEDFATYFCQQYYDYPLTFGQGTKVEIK", "pKd": 8.74}
